# Tested on: MRSA strains from CF patients
# method: Microdilution MICs against 40 MRSA strains from CF patients
# Format: cell-based, S. aureus
# condition.notes: Staphylococcus aureus; 40 MRSA strains from CF patients; read-out: MIC50
assay.metric: MIC50 (µg/mL)
State the answer as a number, implicitly in µg/mL.

• CC(=O)NC[C@H]1CN(c2ccc(N3CCOCC3)c(F)c2)C(=O)O1 = 2

# next compound below
// MIC50 lookup, compound = CCCCCCCCCC(=O)N[C@@H](Cc1c[nH]c2ccccc12)C(=O)N[C@H](CC(N)=O)C(=O)N[C@@H](CC(=O)O)C(=O)N[C@@H]1C(=O)NCC(=O)N[C@@H](CCCN)C(=O)N[C@@H](CC(=O)O)C(=O)N[C@H](C)C(=O)N[C@@H](CC(=O)O)C(=O)NCC(=O)N[C@H](CO)C(=O)N[C@@H]([C@H](C)CC(=O)O)C(=O)N[C@@H](CC(=O)c2ccccc2N)C(=O)O[C@@H]1C , result: 0.5

----------
# Tested on: P. aeruginosa PAO1
# method: MIC by microdilution with PaβN or EGTA, wild-type strain
# Assay type: cell-based
# condition.notes: Pseudomonas aeruginosa, PAO1, PAO1, CA-MHB, PaβN 50 mg/L; read-out: MIC
assay.metric: MIC (µg/mL)
State the answer as a number, implicitly in µg/mL.

- CC[C@H]1OC(=O)[C@H](C)C(=O)[C@H](C)[C@@H](O[C@@H]2O[C@H](C)C[C@H](N(C)C)[C@H]2O)[C@](C)(OC)C[C@@H](C)C(=O)[C@H](C)[C@H]2N(CCCCn3cnc(-c4cccnc4)c3)C(=O)O[C@]12C [TEL, telithromycin]: 4
- CC[C@H]1OC(=O)[C@H](C)[C@@H](O[C@H]2C[C@@](C)(OC)[C@@H](O)[C@H](C)O2)[C@H](C)[C@@H](O[C@@H]2O[C@H](C)C[C@H](N(C)C)[C@H]2O)[C@](C)(OC)C[C@@H](C)C(=O)[C@H](C)[C@@H](O)[C@]1(C)O [CLR, clarithromycin]: 8
- CC[C@H]1OC(=O)[C@H](C)[C@@H](O[C@H]2C[C@@](C)(OC)[C@@H](O)[C@H](C)O2)[C@H](C)[C@@H](O[C@@H]2O[C@H](C)C[C@H](N(C)C)[C@H]2O)[C@](C)(O)C[C@@H](C)C(=O)[C@H](C)[C@@H](O)[C@]1(C)O [ERY, erythromycin]: 16

// MIC lookup, molecule = CC[C@H]1OC(=O)[C@H](C)[C@@H](O[C@H]2C[C@@](C)(OC)[C@@H](O)[C@H](C)O2)[C@H](C)[C@@H](O[C@@H]2O[C@H](C)C[C@H](N(C)C)[C@H]2O)[C@](C)(O)C[C@@H](C)CN(C)[C@H](C)[C@@H](O)[C@]1(C)O [AZM, azithromycin] , result: 4

----------
Item-by-item account of MIC
# Test system: P. aeruginosa PA12
# method: MIC by microdilution with PaβN or EGTA, clinical isolate overexpressing efflux pumps
# Format: cell-based
# condition.notes: Pseudomonas aeruginosa, PA12, PA12, RPMI, EGTA 5 mM

- CC[C@H]1OC(=O)[C@H](C)[C@@H](O[C@H]2C[C@@](C)(OC)[C@@H](O)[C@H](C)O2)[C@H](C)[C@@H](O[C@@H]2O[C@H](C)C[C@H](N(C)C)[C@H]2O)[C@](C)(O)C[C@@H](C)CN(C)[C@H](C)[C@@H](O)[C@]1(C)O: 0.5 µg/mL
- CC[C@H]1OC(=O)[C@H](C)[C@@H](O[C@H]2C[C@@](C)(OC)[C@@H](O)[C@H](C)O2)[C@H](C)[C@@H](O[C@@H]2O[C@H](C)C[C@H](N(C)C)[C@H]2O)[C@](C)(O)C[C@@H](C)C(=O)[C@H](C)[C@@H](O)[C@]1(C)O: 2 µg/mL
- CC[C@H]1OC(=O)[C@H](C)[C@@H](O[C@H]2C[C@@](C)(OC)[C@@H](O)[C@H](C)O2)[C@H](C)[C@@H](O[C@@H]2O[C@H](C)C[C@H](N(C)C)[C@H]2O)[C@](C)(OC)C[C@@H](C)C(=O)[C@H](C)[C@@H](O)[C@]1(C)O: 2 µg/mL

# next compound below
Recorded MIC for CC[C@H]1OC(=O)[C@H](C)C(=O)[C@H](C)[C@@H](O[C@@H]2O[C@H](C)C[C@H](N(C)C)[C@H]2O)[C@](C)(OC)C[C@@H](C)C(=O)[C@H](C)[C@H]2N(CCCCn3cnc(-c4cccnc4)c3)C(=O)O[C@]12C on P. aeruginosa PA12 was 1 µg/mL
